# test.target: human FGFR1c together with human beta-Klotho (KLB), stably expressed on CHO Flp-In cells (human), P11362
# Sequence (P11362 22-822, chain 1 of 2): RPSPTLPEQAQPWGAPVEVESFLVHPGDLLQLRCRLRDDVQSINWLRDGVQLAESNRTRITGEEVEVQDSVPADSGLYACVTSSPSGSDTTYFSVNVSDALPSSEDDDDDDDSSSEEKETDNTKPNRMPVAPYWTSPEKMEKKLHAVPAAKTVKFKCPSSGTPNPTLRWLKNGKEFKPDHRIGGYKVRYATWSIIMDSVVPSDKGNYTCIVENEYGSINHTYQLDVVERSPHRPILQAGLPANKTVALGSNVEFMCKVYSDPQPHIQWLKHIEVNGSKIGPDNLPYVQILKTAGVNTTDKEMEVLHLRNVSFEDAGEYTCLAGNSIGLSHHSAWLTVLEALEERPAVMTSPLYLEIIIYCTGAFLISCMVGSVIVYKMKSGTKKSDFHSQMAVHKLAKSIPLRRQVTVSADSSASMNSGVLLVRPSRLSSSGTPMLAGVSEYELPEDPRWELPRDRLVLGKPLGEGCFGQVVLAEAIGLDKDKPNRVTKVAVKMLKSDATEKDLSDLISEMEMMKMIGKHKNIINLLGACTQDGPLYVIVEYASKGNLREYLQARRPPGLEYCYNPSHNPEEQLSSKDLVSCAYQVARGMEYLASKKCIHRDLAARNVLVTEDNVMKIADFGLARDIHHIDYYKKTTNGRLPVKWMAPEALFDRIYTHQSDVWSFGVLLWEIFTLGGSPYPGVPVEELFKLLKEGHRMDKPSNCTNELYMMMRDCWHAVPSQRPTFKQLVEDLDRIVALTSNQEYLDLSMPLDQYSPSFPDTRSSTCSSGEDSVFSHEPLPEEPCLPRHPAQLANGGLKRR
# Sequence (Q86Z14 whole entry, chain 2 of 2, further chain): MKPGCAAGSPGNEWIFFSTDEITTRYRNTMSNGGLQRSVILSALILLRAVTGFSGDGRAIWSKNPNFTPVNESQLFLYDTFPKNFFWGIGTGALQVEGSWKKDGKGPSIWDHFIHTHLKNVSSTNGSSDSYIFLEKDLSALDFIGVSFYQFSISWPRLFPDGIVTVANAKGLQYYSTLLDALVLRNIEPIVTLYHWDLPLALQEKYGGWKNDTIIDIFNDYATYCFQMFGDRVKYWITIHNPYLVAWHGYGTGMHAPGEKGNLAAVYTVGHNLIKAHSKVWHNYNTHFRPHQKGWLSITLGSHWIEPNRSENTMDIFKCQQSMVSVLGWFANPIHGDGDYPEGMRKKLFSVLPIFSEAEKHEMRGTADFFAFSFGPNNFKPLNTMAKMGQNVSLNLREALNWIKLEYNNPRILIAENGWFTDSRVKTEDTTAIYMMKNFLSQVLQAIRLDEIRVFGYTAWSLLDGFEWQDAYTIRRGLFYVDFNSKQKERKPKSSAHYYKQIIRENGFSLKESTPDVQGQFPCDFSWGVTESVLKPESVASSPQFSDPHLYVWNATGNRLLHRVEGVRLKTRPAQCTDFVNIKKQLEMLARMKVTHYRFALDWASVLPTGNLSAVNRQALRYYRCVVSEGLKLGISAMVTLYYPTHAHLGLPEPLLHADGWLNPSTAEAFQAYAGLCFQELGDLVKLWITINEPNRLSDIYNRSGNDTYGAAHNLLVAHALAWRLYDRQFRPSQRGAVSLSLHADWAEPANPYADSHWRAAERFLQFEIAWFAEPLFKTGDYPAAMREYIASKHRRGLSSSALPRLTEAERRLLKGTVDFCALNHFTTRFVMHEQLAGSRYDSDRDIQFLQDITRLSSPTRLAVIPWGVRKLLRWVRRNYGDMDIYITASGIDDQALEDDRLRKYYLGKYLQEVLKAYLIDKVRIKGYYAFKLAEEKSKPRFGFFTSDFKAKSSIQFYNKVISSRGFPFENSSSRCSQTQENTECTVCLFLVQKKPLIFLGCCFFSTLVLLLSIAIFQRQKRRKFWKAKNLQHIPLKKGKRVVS
# measurement.description: cell-based or functional assay
property.measured: pERK ICW EC50 (nmol/L)
Number in nmol/L, nothing else.

Use these answered entries as a reference point.
binder	pERK ICW EC50 [nmol/L]
FGF21 N149-D155 deleted and replaced by ATTS (SEQ ID NO: 145), Q9NSA1 29-209 (ligand) GHPIPDSSPLLQFGGQVRQRYLYTDDAQQTEAHLEIREDGTVGGAADQSPESLLQLKALKPGVIQILGVKTSRFLCQRPDGALYGSLHFDPEACSFRELLLEDGYNVYQSEAHGLPLHLPGATTSPAPRGPARFLPLPGLPPAPPEPPGILAPQPPDVGSSDPLSMVGPSQGRSPSYAS	0.02
FGF21 D155P (SEQ ID NO: 127), Q9NSA1 29-209 (ligand) GHPIPDSSPLLQFGGQVRQRYLYTDDAQQTEAHLEIREDGTVGGAADQSPESLLQLKALKPGVIQILGVKTSRFLCQRPDGALYGSLHFDPEACSFRELLLEDGYNVYQSEAHGLPLHLPGNKSPHRPPAPRGPARFLPLPGLPPAPPEPPGILAPQPPDVGSSDPLSMVGPSQGRSPSYAS	0.08
FGF21 N149-D155 deleted and replaced by GSGS (SEQ ID NO: 143), Q9NSA1 29-209 (ligand) GHPIPDSSPLLQFGGQVRQRYLYTDDAQQTEAHLEIREDGTVGGAADQSPESLLQLKALKPGVIQILGVKTSRFLCQRPDGALYGSLHFDPEACSFRELLLEDGYNVYQSEAHGLPLHLPGGSGSPAPRGPARFLPLPGLPPAPPEPPGILAPQPPDVGSSDPLSMVGPSQGRSPSYAS	0.28
FGF21 R163H (SEQ ID NO: 141), Q9NSA1 29-209 (ligand) GHPIPDSSPLLQFGGQVRQRYLYTDDAQQTEAHLEIREDGTVGGAADQSPESLLQLKALKPGVIQILGVKTSRFLCQRPDGALYGSLHFDPEACSFRELLLEDGYNVYQSEAHGLPLHLPGNKSPHRDPAPRGPAHFLPLPGLPPAPPEPPGILAPQPPDVGSSDPLSMVGPSQGRSPSYAS	0.39

I am curious: what pERK ICW EC50 value has been reported for FGF21 H153Y, R154K, D155N, P156K, A157G (SEQ ID NO: 134), Q9NSA1 29-209 (ligand) GHPIPDSSPLLQFGGQVRQRYLYTDDAQQTEAHLEIREDGTVGGAADQSPESLLQLKALKPGVIQILGVKTSRFLCQRPDGALYGSLHFDPEACSFRELLLEDGYNVYQSEAHGLPLHLPGNKSPYKNKGPRGPARFLPLPGLPPAPPEPPGILAPQPPDVGSSDPLSMVGPSQGRSPSYAS ?
0.05

Dear colleague, I am looking for the recorded pERK ICW EC50 of the following binder: FGF21 H153Q, R154Q, D155N, A157V, R159K (SEQ ID NO: 132), Q9NSA1 29-209 (ligand) GHPIPDSSPLLQFGGQVRQRYLYTDDAQQTEAHLEIREDGTVGGAADQSPESLLQLKALKPGVIQILGVKTSRFLCQRPDGALYGSLHFDPEACSFRELLLEDGYNVYQSEAHGLPLHLPGNKSPQQNPVPKGPARFLPLPGLPPAPPEPPGILAPQPPDVGSSDPLSMVGPSQGRSPSYAS
0.23
